System: PCSK9 gene
protocol.summary: PCSK9 gRNA/SpCas9 editing in primary human hepatocytes (Tables 2, 4)
Assay type: cell-based
experimental.context: 100 ng/RNA/mL; SpCas9 mRNA MS002 1:1 by weight
In the oligonucleotide strings, read from the 5' end, every base follows the letter of its sugar. An asterisk marks phosphorothioate; unmarked linkages are phosphodiester. Other units and linkages are bracketed, terminal groups are in braces. A string of capitals states the bases alone. m = 2'-O-methyl; r = 2'-OH (RNA)
Records here are stratified by Human Primary Hepatocyte Editing % 100; strata: group 1: < 0.9%; group 2: ≥ 0.9% and < 2%; group 3: ≥ 2%

Example cases with answers are listed next.
molecule: GA216: PCSK9 gRNA; protospacer CCGGGATGCCGGCGTGGCCA (SEQ ID NO: 210) (nucleic acid, sugars from the 5' end m3 r94 m3, linkages s3 o93 s3 (s phosphorothioate, o phosphodiester), T or U not given here) guide: CCGGGAUGCCGGCGUGGCCAGUUUUAGAGCUAGAAAUAGCAAGUUAAAAUAAGGCUAGUCCGUUAUCAACUUGAAAAAGUGGCACCGAGUCGGUGCUUUU
class.label: group 2
--
molecule: GA191: PCSK9 gRNA; protospacer GCCCCATGTCGACTACATCG (SEQ ID NO: 185) (nucleic acid) guide: mG*mC*mC*rCrCrArUrGrUrCrGrArCrUrArCrArUrCrGrGrUrUrUrUrArGrArGrCrUrArGrArArArUrArGrCrArArGrUrUrArArArArUrArArGrGrCrUrArGrUrCrCrGrUrUrArUrCrArArCrUrUrGrArArArArArGrUrGrGrCrArCrCrGrArGrUrCrGrGrUrGrCrU*mU*mU*mU
class.label: group 3
--
molecule: GA222: PCSK9 gRNA; protospacer TGGCAGGGGTGGTCAGCGGC (SEQ ID NO: 216) (nucleic acid, sugars from the 5' end m3 r94 m3, linkages s3 o93 s3 (s phosphorothioate, o phosphodiester), T or U not given here) guide: UGGCAGGGGUGGUCAGCGGCGUUUUAGAGCUAGAAAUAGCAAGUUAAAAUAAGGCUAGUCCGUUAUCAACUUGAAAAAGUGGCACCGAGUCGGUGCUUUU
class.label: group 1
--
molecule: GA163: PCSK9 gRNA; protospacer CGTCCTCGTCCTCCTGCGCA (SEQ ID NO: 157) (nucleic acid, sugars from the 5' end m3 r94 m3, linkages s3 o93 s3 (s phosphorothioate, o phosphodiester), T or U not given here) guide: CGUCCUCGUCCUCCUGCGCAGUUUUAGAGCUAGAAAUAGCAAGUUAAAAUAAGGCUAGUCCGUUAUCAACUUGAAAAAGUGGCACCGAGUCGGUGCUUUU
class.label: group 3
--
molecule: GA178: PCSK9 gRNA; protospacer CTCCTTCAGCACCACCACGT (SEQ ID NO: 172) (nucleic acid) guide: mC*mU*mC*rCrUrUrCrArGrCrArCrCrArCrCrArCrGrUrGrUrUrUrUrArGrArGrCrUrArGrArArArUrArGrCrArArGrUrUrArArArArUrArArGrGrCrUrArGrUrCrCrGrUrUrArUrCrArArCrUrUrGrArArArArArGrUrGrGrCrArCrCrGrArGrUrCrGrGrUrGrCrU*mU*mU*mU
class.label: group 2

Input: In plain terms, what class is GA200: PCSK9 gRNA; protospacer CTAGGAGATACACCTCCACC (SEQ ID NO: 194) (nucleic acid, sugars from the 5' end m3 r94 m3, linkages s3 o93 s3 (s phosphorothioate, o phosphodiester), T or U not given here) guide: CUAGGAGAUACACCUCCACCGUUUUAGAGCUAGAAAUAGCAAGUUAAAAUAAGGCUAGUCCGUUAUCAACUUGAAAAAGUGGCACCGAGUCGGUGCUUUU ?
Output: group 3

Input: Hi, small favor: classify GA177: PCSK9 gRNA; protospacer GGTCGCCACTCATCTTCACC (SEQ ID NO: 171) (nucleic acid, sugars from the 5' end m3 r94 m3, linkages s3 o93 s3 (s phosphorothioate, o phosphodiester), T or U not given here) guide: GGUCGCCACUCAUCUUCACCGUUUUAGAGCUAGAAAUAGCAAGUUAAAAUAAGGCUAGUCCGUUAUCAACUUGAAAAAGUGGCACCGAGUCGGUGCUUUU by its Human Primary Hepatocyte Editing % 100 when you get a moment.
Output: group 1
